# assay.target: Arginase-2, mitochondrial (Homo sapiens) (UniProt P78540)
# Sequence (P78540 whole entry): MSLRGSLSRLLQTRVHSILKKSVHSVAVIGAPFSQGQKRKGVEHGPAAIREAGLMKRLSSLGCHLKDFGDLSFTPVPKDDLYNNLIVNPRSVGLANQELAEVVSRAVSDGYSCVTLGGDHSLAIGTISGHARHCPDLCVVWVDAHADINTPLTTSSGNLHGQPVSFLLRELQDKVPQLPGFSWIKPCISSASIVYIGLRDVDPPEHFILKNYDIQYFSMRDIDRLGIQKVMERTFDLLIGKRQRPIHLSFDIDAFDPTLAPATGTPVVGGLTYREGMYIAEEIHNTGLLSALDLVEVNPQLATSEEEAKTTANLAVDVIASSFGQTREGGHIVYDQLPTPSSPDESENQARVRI
# test.details: in vitro enzyme assay to detect the production of urea directly proportional to the activity of Arginase II
# Assay type: functional
# Set-up: scale not given: in the data most compounds retested in dose-response had high values
# cond: 33.3 µM
Reported Percent Effect values are given for each entry in this list.
measure.name: Percent Effect (%)

1. CNc1nc(C)c(C(=O)N2CCCCC2CN2CCCCCC2)s1 (stereo not drawn); -1.63
2. CCn1cnnc1CNC(=O)N1CCOCC1; 2.66
3. CCOc1cccc(C(C)NC(=O)N2CCC(C(N)=O)CC2)c1 (stereo not drawn); -0.952
4. Cc1noc(C)c1C(=O)N1CC[C@H]2C[C@@H](c3ccncn3)O[C@@H]2C1; -2.43
5. CC(=O)N1CCCN(CC(C)(O)c2cccc(C(F)(F)F)c2)CC1 (stereo not drawn); -7.99
6. CCc1cnc(C)nc1NCCN1CCCCCC1; 0
7. Cc1nc(C)n(CC2CN(Cc3cccc(C#N)c3)CCO2)n1 (stereo not drawn); 0.802
8. CSc1ccc(Cl)c(C(=O)N2CCCC(CNS(C)(=O)=O)C2)c1 (stereo not drawn); -14.6
9. CCn1c(C)nnc1CN(C)C1CCN(CCCOC)C1 (stereo not drawn); 6.11
10. COc1ccc(C(O)CNC(=O)NCc2csc(C)n2)cc1 (stereo not drawn); -2.03
11. CN(C)CC(=O)N1CCC2(CCN(Cc3ccccn3)C2=O)C1 (stereo not drawn); -4.45
12. O=C(NCCn1ccnc1)N1CCN(Cc2cccs2)CC1; 2.66
13. CN1CCOC(CNCCc2ccccn2)C1 (stereo not drawn); 5.7
14. Cn1cc(CNCC2Cn3nnc(-c4ccccc4)c3CO2)cn1 (stereo not drawn); 13
15. CC(Cn1cccn1)NC(=O)NCc1ccc(S(N)(=O)=O)cc1 (stereo not drawn); -1.05
16. COCc1cncc2c1CCN(C(=O)c1ccc(C)o1)C2; -60
17. CCSc1ccc(C(=O)Nc2c(C)nn(C(C)C)c2C)cn1; -1.2
18. COCC(=O)N1CCC2(CCN(Cc3ccccn3)CC2)CC1; 11.7
19. COc1cc(CN(C)C(=O)Cc2c(C)nn(C)c2C)ccc1OC(F)F; 3.09
20. CC(C)CNC(=O)c1ccc2nnc(C3CCN(S(C)(=O)=O)C3)n2c1 (stereo not drawn); 0
21. Cc1ccc(N2CC[C@H]3C[C@@H](C(=O)N4CCOCC4)O[C@H]3C2)nn1; -0.319
22. CC(C)c1nc(C2CCCN2CC(=O)Nc2ccc(Cl)cn2)no1 (stereo not drawn); -4.88
23. O=C(NCCCn1cncn1)N1CCCC(N2CCCC2)C1 (stereo not drawn); 2.3
24. CCN(C(=O)Nc1cccnc1OC)C1CC1; -3.2
25. COCc1nc(CNC2CCSCC2)no1; 1.75
26. Cc1noc([C@@H]2CCCN2C(=O)C2CCN(C(=O)C3CCC3)CC2)n1; 0.909
27. Cc1ccc(CN2CCCC3(COCCN(Cc4c[nH]nn4)C3)C2)o1 (stereo not drawn); -22.8
28. CC(C)c1nc(C2CCCN(C(=O)c3ccc4nccn4c3)C2)no1 (stereo not drawn); 1.47
29. Cn1ncc2c(N3CCN(C(N)=O)CC3)nc(C3CCCC3)nc21; 0.883
30. Cc1ccc(-c2noc(CN3CCOC(CN(C)C)C3)n2)cc1F (stereo not drawn); -4.25
31. CC(C)OCCOCc1cccc(NC(=O)NCCn2ccnc2)c1; -1.38
32. CSCC(=O)N1CCCC(n2ccnc2C(C)C)C1 (stereo not drawn); 5.4
33. CCc1nc2n(n1)CC(NCC(=O)Nc1ccc(Cl)cn1)CC2 (stereo not drawn); 3.04
34. Cc1ccoc1C(=O)N1CC[C@H]2O[C@@H](C)C[C@H]2C1; -45.3
35. c1cnc2c(c1)cc(C1CCOCC1)n2CCN1CCOCC1; -1.62
36. CC(C)c1nc(CN(C)C2CCN(CCNS(C)(=O)=O)C2)no1 (stereo not drawn); -11.7
37. CCC(CC)C(O)CNC(=O)Nc1cc(C)nn1C (stereo not drawn); -1.9
38. COc1ccc(CNC(=O)NCC2CCOC2)c(C(F)(F)F)c1 (stereo not drawn); -0.442
39. COc1cccc2ccn(CCC(=O)N3CCCC(C(=O)O)C3)c12 (stereo not drawn); -1.18
40. O=C(NCCC1=CCCCC1)C1CCN(c2ccc3nncn3n2)CC1; -2.45
41. CC(OCC1CC1)C(=O)N1CCCN(c2ncccc2C#N)CC1 (stereo not drawn); -8.99
42. Cc1ccc(N2CCN(C(=O)COc3nccc(C)n3)CC2)nn1; 6.36
43. COc1cccc2c1OCC(NC(=O)NC1CCN(C3CC3)CC1)C2 (stereo not drawn); 0
44. CCN1CC2(CCN(CCOCCO)CC2)CC(c2ccccc2)C1=O (stereo not drawn); -3.12
45. Cc1nnc2n1CCN(CCOc1ccccc1)C2; 3.66
46. CC(=O)N1CCCn2nc(CNS(=O)(=O)c3cc(C)cs3)cc2C1; 4.54
47. CCN(CC)C1CCN(C(=O)NCc2nncn2CC)CC1; 3.55
48. O=C(N[C@@H]1CN(Cc2cccs2)[C@@H]2CCCO[C@@H]21)C1CC1; -53.6
